- TESTED_TARGET: HUI77, murine IgM anti-denatured-collagen monoclonal antibody
- TEST_NAME: competition ELISA on coated dn-collagen IV
Square brackets hold non-standard residues; d marks the D form. Ends that are not written are not given here. Hyp = O=C(O)[C@@H]1C[C@@H](O)CN1
REPORTED_METRIC: % inhibition of HUI77 binding to dn-collagen IV, peptide 10 µM (%)

1. L[Hyp]GP[Hyp]G [synthetic peptide No. 16, LPGPPG (SEQ ID NO: 24)]: 3
2. PGP[Hyp]GP[Hyp]GP [synthetic peptide No. 1, … (SEQ ID NO: 29)]: 10.5
3. GPPG (also: hydroxyproline marking, if any, lost) [synthetic peptide No. 22, GPPG (SEQ ID NO: 35)]: 2.5
4. LPGPPGPPG (also: hydroxyproline at marked P positions, if any, marking lost) [synthetic peptide No. 18, … (SEQ ID NO: 22)]: 6.5
5. L[Hyp]GT[Hyp]G [synthetic peptide No. 8, LPGTPG (SEQ ID NO: 27)]: 3.5
6. GP[Hyp]GP[Hyp]GPY [synthetic peptide No. 3, … (SEQ ID NO: 30)]: 8.5
7. CTWPRHHTTDALL [non-collagen control peptide No. 6, … (SEQ ID NO: 39)]: 6.5

[a] GPXGPXG (contains hydroxyproline ('where P is hydroxyproline'); positions marked in the tables but lost in this text) [synthetic peptide No. 15, GPPGPPG (SEQ ID NO: 32)]
[b] GPPGPPG (also: hydroxyproline at marked P positions, if any, marking lost) [synthetic peptide No. 23, GPPGPPG (SEQ ID NO: 33)]
## Task // returns a or b , whichever has the lower % inhibition of HUI77 binding to dn-collagen IV, peptide 10 µM Refer to your chosen item by its label in the answer.
## Result b
(b: 1.5%, a: 6%)
